Reported log10(IC50) values for a set of compounds
- tested.system: human LPAR1 (Homo sapiens)
- Construct: expressed in transfected cells
- protocol.details: Test Example 1: antagonism against response of LPA-induced increase in intracellular Ca2+ concentration in RH7777 cells stably expressing human LPAR1
- Type: cell-based
- condition.parameters: RH7777 cells stably expressing human LPAR1; Fluo-4 fluorescence, FDSS6000; read-out: IC50 value (concentration producing 50% antagonism against response of LPA-induced increase in intracellular Ca2+ concentration) (converted)
Lab note - IC50 converted to log10 from values in nM.

[
  {
    "compound": "CCOc1cc([C@@H](C)N(CCC2Cc3ccccc3C2)C(=O)NC2(C(=O)O)CC(OC)C2)cc(OCC)c1C(C)=O (stereo partly shown) [Example 4-23]",
    "log10(IC50)": 0.86
  },
  {
    "compound": "COc1cc(C(C)N(CCOCc2ccccc2)C(=O)NC2(C(=O)O)CCC2)c(C)c(OC)c1C(C)=O (stereo not shown)",
    "log10(IC50)": 0.66
  },
  {
    "compound": "CCOc1cc([C@@H](C)N(CCO[C@H](C)c2ccccc2)C(=O)NC2(C(=O)O)CCOCC2)c(Cl)c(OCC)c1C(C)=O",
    "log10(IC50)": 0.62
  },
  {
    "compound": "CCOc1cc([C@@H](C)N(CCC(F)(F)Cc2ccccc2)C(=O)NC2(C(=O)O)CC(OCC)C2)cc(OCC)c1C1CC1 (stereo partly shown)",
    "log10(IC50)": 0.56
  },
  {
    "compound": "CCOc1cc([C@@H](C)N(CCCCc2ccccc2)C(=O)NC2(C(=O)O)CC(F)(F)C2)c(Cl)c(OCC)c1C(C)=O",
    "log10(IC50)": 0.13
  }
]

Ask: Please give the measured log10(IC50) for this compound: CCOc1cc(C(C)N(CCCCc2ccccc2)C(=O)NC2CCC[C@@H]2C(=O)O)cc(OCC)c1C (stereo partly shown)
Reply: 2.01

Ask: Please give the measured log10(IC50) for this compound: CCOc1cc(C(C)N(CCOCc2ccccc2)C(=O)NC2(C(=O)O)CC(OC)C2)cc(OCC)c1C1CC1 (stereo not shown) [Example 5-199]
Reply: -0.12

====

- tested.system: human LPAR1 (Homo sapiens, UniProt Q92633)
- Construct: expressed in transfected cells
- Sequence (Q92633 whole entry): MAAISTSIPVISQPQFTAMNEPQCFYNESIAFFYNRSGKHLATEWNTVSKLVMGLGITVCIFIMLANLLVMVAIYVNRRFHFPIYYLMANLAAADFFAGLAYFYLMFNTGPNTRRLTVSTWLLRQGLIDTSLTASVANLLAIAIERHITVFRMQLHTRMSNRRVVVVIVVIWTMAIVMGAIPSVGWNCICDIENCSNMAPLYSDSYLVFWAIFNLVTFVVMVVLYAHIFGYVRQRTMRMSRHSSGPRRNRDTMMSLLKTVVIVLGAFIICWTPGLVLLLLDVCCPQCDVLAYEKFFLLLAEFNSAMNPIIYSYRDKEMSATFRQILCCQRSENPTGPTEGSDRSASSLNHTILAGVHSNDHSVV
- protocol.details: Test Example 1: antagonism against response of LPA-induced increase in intracellular Ca2+ concentration in RH7777 cells stably expressing human LPAR1
- Type: cell-based
- condition.parameters: RH7777 cells stably expressing human LPAR1; Fluo-4 fluorescence, FDSS6000; read-out: IC50 value (concentration producing 50% antagonism against response of LPA-induced increase in intracellular Ca2+ concentration) (converted)
Label scheme, based on IC50: small value: < 3 nM; mid value: ≥ 3 nM and < 8 nM; large value: ≥ 8 nM

[
  {
    "molecule": "CCOc1cc([C@@H](C)N(CCCCC(C)C)C(=O)NC2(C(=O)O)CC(F)(F)C2)cc(OCC)c1C",
    "group": "large value"
  },
  {
    "molecule": "CCOc1cc(C(C)N(CCOCc2ccccc2)C(=O)NC2(C(=O)O)CC(OC)C2)c(C)c(OCC)c1C1CC1 (stereo not shown)",
    "group": "small value"
  },
  {
    "molecule": "COc1cc([C@@H](C)N(CCOCc2ccccc2)C(=O)NC2(C(=O)O)CC(OC)C2)c(Cl)c(OC)c1C(C)=O (stereo partly shown)",
    "group": "mid value"
  }
]

Ask: Exam item: assign CCOC(=O)C1(NC(=O)N(CCO[C@@H](C)c2ccccc2)C(C)c2cc(OCC)c(C(C)=O)c(OCC)c2Cl)CC(F)(F)C1 (stereo partly shown) to the correct category.
Reply: large value

Ask: Exam item: assign CCOc1cc(C(C)N(CCOC(C)c2ccccc2)C(=O)NC2(C(=O)O)CC(OC)C2)c(Cl)c(OCC)c1C1CC1 (stereo not shown) to the correct category.
Reply: small value

Ask: Exam item: assign `CCOc1c(C2CC2)ccc([C@@H](C)N(CCO[C@H](C)c2ccccc2)C(=O)NC2(C(=O)O)CC(F)(F)C2)c1C` to the correct category.
Reply: small value

Ask: Exam item: assign CCOc1cc(C(C)N(CCOCc2ccccc2)C(=O)NC2(C(=O)O)CC2)c(Cl)c(OCC)c1C(C)=O (stereo not shown) to the correct category.
Reply: small value

Ask: Exam item: assign COc1cc(C(C)N(CCOCc2ccccc2)C(=O)NC2(C(=O)O)CCC2)c(C)c(OC)c1C1CC1 (stereo not shown) to the correct category.
Reply: small value

Ask: Exam item: assign CCOc1cc([C@@H](C)N(CCC(F)(F)Cc2ccccc2)C(=O)NC2(C(=O)O)CC(F)(F)C2)cc(OCC)c1C(C)O (single isomer, unassigned) [Example 4-86] to the correct category.
Reply: small value

Ask: Exam item: assign CCOc1c(C(C)=O)ccc([C@@H](C)N(CCCCc2ccccc2)C(=O)NC2(C(=O)O)CC(OC)C2)c1C (stereo partly shown) [Example 1-94] to the correct category.
Reply: large value

Ask: Exam item: assign `CCOc1cc([C@@H](C)N(CCCc2ccc(F)cc2)C(=O)NC2(C(=O)O)CC(F)(F)C2)cc(OCC)c1C` to the correct category.
Reply: mid value

Ask: Exam item: assign COc1cc(CN(CCCCc2ccccc2)C(=O)NCC(C(=O)O)C(C)C)cc(OC)c1C (stereo not shown) to the correct category.
Reply: large value

====

- tested.system: human LPAR1 (Homo sapiens, UniProt Q92633)
- Construct: expressed in transfected cells
- protocol.details: Test Example 1: antagonism against response of LPA-induced increase in intracellular Ca2+ concentration in RH7777 cells stably expressing human LPAR1
- Format: cell-based
- condition.parameters: RH7777 cells stably expressing human LPAR1; Fluo-4 fluorescence, FDSS6000; read-out: IC50 value (concentration producing 50% antagonism against response of LPA-induced increase in intracellular Ca2+ concentration) (converted)
Each record is given criterion met if its reported IC50 is strictly below 10 nM. Records at or above 10 nM are given criterion not met.

Worked examples, 3 compounds total:
[
  {
    "compound": "CCOc1cc([C@@H](C)N(CCCCc2ccccc2)C(=O)NC2(C(=O)O)CCOCC2)cc(OCC)c1C",
    "tested.system": "human LPAR1 (Homo sapiens, UniProt Q92633)",
    "group": "criterion not met"
  },
  {
    "compound": "CCOc1cc(C(C)N(CCO[C@@H](C)c2ccccc2)C(=O)NC2(C(=O)OC)CC(OCC)C2)c(Cl)c(OCC)c1C(C)=O (some centres unmarked)",
    "tested.system": "human LPAR1 (Homo sapiens, UniProt Q92633)",
    "group": "criterion not met"
  },
  {
    "compound": "CCOc1c(C(C)=O)ccc([C@@H](C)N(CCCC(F)(F)c2ccccc2)C(=O)N[C@]2(C(=O)O)C[C@@H](OC)C2)c1C",
    "tested.system": "human LPAR1 (Homo sapiens, UniProt Q92633)",
    "group": "criterion met"
  }
]

Ask: Check if IC50 falls below 10 nM for `CCOc1cc([C@@H](C)N(CCCC(F)(F)c2ccccc2)C(=O)NC2(C(=O)O)CC(F)(F)C2)cc(OCC)c1C(C)=O` .
Reply: criterion met

Ask: Check if IC50 falls below 10 nM for `CCOc1cc([C@H](C)N(CCCCc2ccccc2)C(=O)NC2(C(=O)O)CC(F)(F)C2)cc(OCC)c1C(C)=O` .
Reply: criterion not met

Ask: Check if IC50 falls below 10 nM for `CCOc1cc([C@@H](C)N(CCO[C@H](C)c2ccccc2)C(=O)NC2(C(=O)O)CC(F)(F)C2)cc(OCC)c1C(C)=O` .
Reply: criterion met

====

- tested.system: human LPAR1 (Homo sapiens, UniProt Q92633)
- Construct: expressed in transfected cells
- protocol.details: Test Example 1: antagonism against response of LPA-induced increase in intracellular Ca2+ concentration in RH7777 cells stably expressing human LPAR1
- Type: cell-based
- condition.parameters: RH7777 cells stably expressing human LPAR1; Fluo-4 fluorescence, FDSS6000; read-out: IC50 value (concentration producing 50% antagonism against response of LPA-induced increase in intracellular Ca2+ concentration) (converted)
Each record is given 1 if its reported IC50 is strictly below 4 nM. Records at or above 4 nM are given 0.

Worked examples, 3 molecules total:
[
  {
    "molecule": "CCOc1cc([C@@H](C)N(CCCCc2ccccc2)C(=O)NC2(C(=O)O)CCCCCC2)cc(OCC)c1C [Example 1-119]",
    "tested.system": "human LPAR1 (Homo sapiens, UniProt Q92633)",
    "group": 0
  },
  {
    "molecule": "CCOC1CC(NC(=O)N(CCOC(C)c2ccccc2)C(C)c2cc(OC)c(C3CC3)c(OC)c2)(C(=O)O)C1 (stereo not drawn) [Example 5-167]",
    "tested.system": "human LPAR1 (Homo sapiens, UniProt Q92633)",
    "group": 0
  },
  {
    "molecule": "CCOc1cc(C(C)N(CCCCc2ccccc2)C(=O)NC2CCC2C(=O)O)cc(OCC)c1C(C)=O (stereo not drawn) [Example 1-125]",
    "tested.system": "human LPAR1 (Homo sapiens, UniProt Q92633)",
    "group": 1
  }
]

Ask: Check if IC50 falls below 4 nM for CCOc1cc([C@@H](C)N(CCCCc2ccccc2)C(=O)NC2(C(=O)O)CC(OC)C2)cc(OCC)c1C (stereo partly drawn) [Example 1-91] .
Reply: 1

Ask: Check if IC50 falls below 4 nM for CCOc1cc([C@@H](C)N(CCO[C@@H](C)c2ccccc2)C(=O)N[C@]2(C(=O)O)C[C@@H](OC)C2)cc(OCC)c1C(C)=O [Example 4-121] .
Reply: 1

Ask: Check if IC50 falls below 4 nM for CCOc1cc([C@@H](C)N(CCCCc2ccccc2)C(=O)N[C@H]2COC[C@H]2C(=O)O)cc(OCC)c1C(C)=O [Example 1-161] .
Reply: 0

The values you see were collected from patent US12338203B2.
